- Tested on: LOX IMVI melanoma
- TEST_PROTOCOL: NCI-60 one-dose screen, 48 h (100 = growth as untreated, 0 = no growth, -100 = all killed)
- MEASUREMENT_CONDITIONS: 10 µM unless noted
This is part of a sample that, as a whole, favours compounds with a hit. Of some 83,000 tested, about 20% had one in any assay.
The threshold is inclusive: growth of exactly 70% counts as YES; values below receive NO.

// known answers, use as guide
[
  {
    "MOLECULE": "Oc1ccc(Cl)cc1Sc1cc(Cl)ccc1O",
    "CLASS_ASSIGNMENT": "YES"
  },
  {
    "MOLECULE": "C=C1C(=O)O[C@H]2[C@H]1CC/C(C(=O)NCCOCCOCC(=O)Nc1ccc(OC)c(C(N)=O)c1O)=C\\CC[C@@]1(C)O[C@@H]21",
    "CLASS_ASSIGNMENT": "YES"
  },
  {
    "MOLECULE": "COc1ccc(Cl)cc1NC(=O)c1cc2c([nH]1)-c1nc(NC(=O)C(C)C)sc1CC2",
    "CLASS_ASSIGNMENT": "YES"
  },
  {
    "MOLECULE": "O=c1nc(N2CCOCC2)oc2c(-c3cccc4ccccc34)cccc12",
    "CLASS_ASSIGNMENT": "YES"
  },
  {
    "MOLECULE": "O=C(Nc1ccc(-n2cc(-c3ccncc3)c(-c3ccc(O)c(Cl)c3)n2)cc1)Nc1cc(C(F)(F)F)cc(C(F)(F)F)c1",
    "CLASS_ASSIGNMENT": "NO"
  }
]

# bool: growth of "COc1ccc(-c2c(C#N)cnc(N)c2-c2nc3cc(C)c(C)cc3[nH]2)cc1" >= 70%
NO

In plain terms: is recorded growth at least 70% for Cc1ccc2c(C3C(C#N)=C(N)Oc4cc5ccccc5cc43)cc(=O)oc2c1 (stereo not given) ?
NO

Can "O=C1c2ccccc2C(=O)c2c(NCCN=Cc3c(O)ccc4ccccc34)cccc21" be said to have growth at or above 70%?
NO

Threshold query (growth >= 70%) on "O=C(NNC(=O)c1ccc([N+](=O)[O-])cc1)c1ccc([N+](=O)[O-])cc1"
YES

Dear colleague, could you confirm whether O=S(c1ccccc1)c1ccc2nnnn2n1 (stereo not given) has growth at or above 70%?
YES

---

- Test system: HOP-92 NSCLC
- TEST_PROTOCOL: NCI-60 one-dose screen, 48 h (100 = growth as untreated, 0 = no growth, -100 = all killed)
- MEASUREMENT_CONDITIONS: 10 µM unless noted
The panel holds about 83,000 compounds, 20% with a hit somewhere; the sample as a whole holds those more often.
REPORTED_ENDPOINT: growth (%)
# number only, unit % dropped from output

[
  {
    "MOLECULE": "CN(C)c1ccc(/C=N/n2c(-c3cc(F)c(Cl)cc3Cl)nn(CN3CCOCC3)c2=S)cc1",
    "TARGET_SYSTEM": "HOP-92 NSCLC",
    "REPORTED_ENDPOINT": "growth",
    "RESULT": 75.2
  },
  {
    "MOLECULE": "O=C(Nc1ccc(F)cc1)Nc1ccc(Cl)c([N+](=O)[O-])c1",
    "TARGET_SYSTEM": "HOP-92 NSCLC",
    "REPORTED_ENDPOINT": "growth",
    "RESULT": -8.16
  },
  {
    "MOLECULE": "C/C(=N/NC(=O)Cn1c2ccccc2c2ccncc21)c1cccs1",
    "TARGET_SYSTEM": "HOP-92 NSCLC",
    "REPORTED_ENDPOINT": "growth",
    "RESULT": 92
  }
]

Provide measured growth on HOP-92 NSCLC for "c1coc(CSc2ncnc3nc[nH]c23)c1" please.
57.8

Provide growth, system HOP-92 NSCLC, entry "C=C1C(=O)O[C@H]2[C@H]1CC/C(COC(=O)c1ccccc1)=C\CC[C@@]1(C)O[C@@H]21"
-41.9

# return growth of "CC(C)CCC[C@@H](C)[C@H]1CC[C@H]2[C@@H]3CC=C4N(c5ccccc5)C(=O)CC[C@]4(C)[C@H]3CC[C@]12C" (system: HOP-92 NSCLC)
60.2

---

- Test system: SF-539 CNS
- TEST_PROTOCOL: NCI-60 one-dose screen, 48 h (100 = growth as untreated, 0 = no growth, -100 = all killed)
- MEASUREMENT_CONDITIONS: 10 µM unless noted
This is part of a sample that, as a whole, favours compounds with a hit. Of some 83,000 tested, about 20% had one in any assay.
REPORTED_ENDPOINT: growth (%)
The response must be a number in % with no trailing unit.

[
  {
    "COMPOUND": "CN1CCN(CC(=O)N(C)c2ccc(N=C(c3ccccc3)c3c(O)[nH]c4ccc(C#N)cc34)cc2)CC1",
    "growth / %": -20.2
  },
  {
    "COMPOUND": "CCNc1ncnc2n[nH]nc12",
    "growth / %": 101
  },
  {
    "COMPOUND": "O=C(Nc1ccc(-n2cc(-c3ccncc3)c(-c3ccc(O)c(Cl)c3)n2)cc1)Nc1ccc(Cl)c(C(F)(F)F)c1",
    "growth / %": 13.7
  },
  {
    "COMPOUND": "CCCCCC/C=N/Nc1ccc([N+](=O)[O-])cn1",
    "growth / %": 93.7
  },
  {
    "COMPOUND": "Nc1nccc2c1ccn2-c1cccc(NC(=O)c2ccc(N3CCOCC3)c(C(F)(F)F)c2)c1",
    "growth / %": 3.23
  },
  {
    "COMPOUND": "Cc1cc(N2CCOCC2)nc(N(CCNc2ccnc3cc(Cl)ccc23)Cc2ccco2)n1",
    "growth / %": -31.8
  }
]

Kindly consider the entry below.
// fetch growth; item: "COc1ccc(-c2c(NC(=O)Nc3ccc(Cl)c(C(F)(F)F)c3)cnn2-c2ccc(S(N)(=O)=O)cc2)cc1" ; system: SF-539 CNS
35.2

---

- System: SF-295 CNS
- TEST_PROTOCOL: NCI-60 one-dose screen, 48 h (100 = growth as untreated, 0 = no growth, -100 = all killed)
- MEASUREMENT_CONDITIONS: 10 µM unless noted
This is part of a sample that, as a whole, favours compounds with a hit. Of some 83,000 tested, about 20% had one in any assay. The source made the active and inactive calls. Rule for the calls: active = growth percent below 10; inactive = the rest.
Below, each of the compounds is paired with its reported growth value.

Please review the following examples before continuing.
[
  {
    "SMILES_TEXT": "O=C(COc1ccc(Cl)cc1)N1CCN(Cc2ccc3c(c2)OCO3)CC1",
    "growth": "95.4% (inactive)"
  },
  {
    "SMILES_TEXT": "c1ccc2nc(Cn3cc[n+](Cc4ccc5ccccc5n4)c3)ccc2c1",
    "growth": "91.5% (inactive)"
  },
  {
    "SMILES_TEXT": "CCc1cccc(C)c1NC(=O)c1sc2nc3c(cc2c1N)CCCCC3",
    "growth": "27% (inactive)"
  }
]

Turning now to a further compound:
Read off the recorded growth for "CN1CCN(CC(=O)N(C)c2ccc(N=C(c3ccccc3)c3c(O)[nH]c4ccc(C#N)cc34)cc2)CC1"
18.2% (inactive)

---

- Tested on: TK-10 renal
- TEST_PROTOCOL: NCI-60 one-dose screen, 48 h (100 = growth as untreated, 0 = no growth, -100 = all killed)
- MEASUREMENT_CONDITIONS: 10 µM unless noted
- Description: Growth inhibition of the TK-10 human tumor cell line is measured as a screen for anti-cancer activity. Cells are grown in 96 well plates and exposed to the test compound for 48 hours. Compounds are tested at a single concentration, which is 10^-5 M for most compounds. The reported endpoint is percent growth (GI% or GIPRCNT), where numbers from 0 - 100% represent growth inhibition, and numbers from -100% - 0 represent cell death. For example, a value of 40 represents 60% growth inhibition. […]
Compounds without any hit were thinned out: in the full panel of roughly 83,000, 20% have a hit.
Reported growth values follow for various compounds
Write the number in % without appending the unit.

[
  {
    "COMPOUND": "COc1ccccc1N1CCN(CC(O)COc2c(Br)c(Br)c(Br)c3c2OC(C)(C)C3)CC1 (stereo not given)",
    "U": "%",
    "growth": 40.5
  },
  {
    "COMPOUND": "CN(C)c1ccc2cc(-c3nc4ccccc4s3)c(N)nc2c1",
    "U": "%",
    "growth": 111
  },
  {
    "COMPOUND": "O=C(O)c1ccc(-c2nn(-c3ccc(C(=O)O)cc3)cc2/C=N/Nc2c(F)c(F)cc(F)c2F)cc1",
    "U": "%",
    "growth": 98.1
  },
  {
    "COMPOUND": "Cc1cc[n+](CCCC[n+]2ccc(C)cc2)cc1",
    "U": "%",
    "growth": 107
  },
  {
    "COMPOUND": "CCCCN(CCCC)c1ccc(C(=N)c2ccc(N(C)C)cc2)cc1",
    "U": "%",
    "growth": -5.56
  },
  {
    "COMPOUND": "COc1ccc(C2CC(c3cc(Cl)c(C)cc3OC)=NN2c2ccc(S(N)(=O)=O)cc2)cc1OC (stereo not given)",
    "U": "%",
    "growth": 113
  }
]

Hello, please tell me recorded growth for this one: "COc1ccc2c(c1)/C(=C/c1c(-c3cc(OC)c(OC)c(OC)c3Br)nc3sccn13)C(=O)N2"
118

Give the reported growth for this compound. "O=C(COc1ccc(Cl)cc1)N1CCN(Cc2ccc3c(c2)OCO3)CC1"
116
